Tested on: Rattus norvegicus
Assay: Maximum fall in systolic blood pressure at interval from 1 to 6 hours at a dose of 30 mg/kg when administered perorally in rats
Assay type: functional, Artery
Conditions: route oral
This listing pairs compounds with measured Max fall in blood pressure.
# unit: mmHg | format: bare number

• Cc1ccc2c(c1)[C@@H](N1CCCCC1)[C@H](O)C(C)(C)O2.Cl = 44

Give the observed Max fall in blood pressure of `CC1(C)Oc2ccc([N+](=O)[O-])cc2[C@@H](N)[C@@H]1O.Cl` for Rattus norvegicus.
23

Give the observed Max fall in blood pressure of CC1CCC(C)N1[C@@H]1c2cc([N+](=O)[O-])ccc2OC(C)(C)[C@H]1O.Cl (stereo partly specified) for Rattus norvegicus.
26

Give the observed Max fall in blood pressure of `CC(=O)c1ccc2c(c1)[C@@H](N1CCCC1)[C@H](O)C(C)(C)O2.Cl` for Rattus norvegicus.
66

Give the observed Max fall in blood pressure of `CC(=O)c1ccc2c(c1)[C@@H](N1CCCCC1)[C@H](O)C(C)(C)O2.Cl` for Rattus norvegicus.
65

Give the observed Max fall in blood pressure of `COc1ccc2c(c1)[C@@H](N1CCCC1)[C@H](O)C(C)(C)O2.Cl` for Rattus norvegicus.
29

---

Test system: Rattus norvegicus
Assay: Maximum fall in systolic blood pressure at interval from 1 to 6 hours at a dose of 30 mg/kg when administered perorally in rats
Format: functional, Artery
Conditions: route oral
Just so you know, the groups by Max fall in blood pressure go like this: low band: < 20 mmHg; middle band: ≥ 20 mmHg and < 60 mmHg; high band: ≥ 60 mmHg

Example cases with answers are listed next.
- CCN(CC)[C@@H]1c2cc([N+](=O)[O-])ccc2OC(C)(C)[C@H]1O.Cl: middle band
- CC1(C)Oc2cc(C#N)ccc2[C@@H](N2CCCCC2)[C@@H]1O.Cl: low band
- C/C(=N\O)c1ccc2c(c1)[C@@H](N1CCCCC1)[C@H](O)C(C)(C)O2.CS(=O)(=O)O: high band
- CC(O)c1ccc2c(c1)[C@@H](N1CCCCC1)[C@H](O)C(C)(C)O2.Cl (stereo not given in full): high band
- CN[C@@H]1c2cc([N+](=O)[O-])ccc2OC(C)(C)[C@H]1O.Cl: middle band
- CC1(C)Oc2ccc([N+](=O)[O-])cc2[C@@H](N2CCOCC2)[C@@H]1O.Cl: middle band

In plain terms, what class is `COC(=O)c1ccc2c(c1)[C@@H](N1CCCC1)[C@H](O)C(C)(C)O2.CS(=O)(=O)O` ?
high band

In plain terms, what class is `CC1(C)Oc2ccc([N+](=O)[O-])cc2[C@@H](N2CCCCCCC2)[C@@H]1O.Cl` ?
high band

In plain terms, what class is `CC1(C)Oc2ccccc2[C@@H](N2CCCC2)[C@@H]1O.Cl` ?
low band

In plain terms, what class is `CC1(C)Oc2ccc(Cl)cc2[C@@H](N2CCCCC2)[C@@H]1O.Cl` ?
low band

Where do the numbers come from? From ChEMBL document CHEMBL1122483.
